- Test details: Oral bioavailability in BALB/c nude mouse at 20 mg/kg measured upto 24 hrs by LC-MS/MS analysis
- Format: ADME, organism-based
- Test conditions: BALB/c nude, in vivo
Positions of bridges follow the written chain, without caps; N, C: chain ends. Non-standard residues stand in square brackets, D forms with d. Residues, ends and D or L forms follow the SMILES beside them. *: point of attachment. hPhe(3-Cl-4-CF3) = N[C@@H](CCc1ccc(C(F)(F)F)c(Cl)c1)C(=O)O; NMeGly(cPent) = CN[C@H](C(=O)O)C1CCCC1; NMeCha = CN[C@@H](CC1CCCCC1)C(=O)O; NMeD = CN[C@@H](CC(=O)O)C(=O)O; NMeL = CN[C@@H](CC(C)C)C(=O)O; Morpholide = C1CN(*)CCO1; NMeA = CN[C@@H](C)C(=O)O; Ac5c = NC1(C(=O)O)CCCC1; Aze = O=C(O)[C@@H]1CCN1; Sar = CNCC(=O)O
Measurement type: bioavailability (%)

CC[C@H](C)[C@@H]1NC(=O)[C@H](CC(C)C)N(C)C(=O)C[C@@H](C(=O)N2CCOCC2)N(C)C(=O)[C@H](C2CCCC2)N(C)C(=O)C2(CCCC2)NC(=O)[C@@H]2CCCN2C(=O)[C@H](CCc2ccc(C(F)(F)F)c(Cl)c2)NC(=O)CN(C)C(=O)[C@H](CC2CCCCC2)N(C)C(=O)[C@@H]2CCN2C(=O)[C@H](C)N(C)C1=O ([NMeL]I[NMeA][Aze][NMeCha][Sar][hPhe(3-Cl-4-CF3)]P[Ac5c][NMeGly(cPent)][NMeD]-Morpholide; lactam N-11) : 14

---

In this section we review reported pIC50 values for a set of compounds.
- Test details: Inhibition of biotin-tagged KRAS G12D mutant (unknown origin) to recombinant His-tagged SOS1 (unknown origin) protein-protein interaction incubated for 120 mins by AlphaLISA method
- Parameters: species or system Homo sapiens
pIC50: −log10 of the molar value. Starred links: 1 amine or outer side, 2 acyl side, 3 side chain; linkers in the order of their positions; H or OH if unused. Positions of bridges follow the written chain, without caps; N, C: chain ends. Non-standard residues stand in square brackets, D forms with d. Residues, ends and D or L forms follow the SMILES beside them. *: point of attachment. hPhe(3-Cl-4-CF3) = N[C@@H](CCc1ccc(C(F)(F)F)c(Cl)c1)C(=O)O; X2 = CN([C@@H](CC(=O)[*:2])C(=O)n1cccc1)[*:1]; NMePhe(4-Cl) = CN[C@@H](Cc1ccc(Cl)cc1)C(=O)O; Phe(3-Cl) = N[C@@H](Cc1cccc(Cl)c1)C(=O)O; NMeGly(cPent) = CN[C@H](C(=O)O)C1CCCC1; NMeAla(cPr) = CN[C@@H](CC1CC1)C(=O)O; NMeCha = CN[C@@H](CC1CCCCC1)C(=O)O; NMeF = CN[C@@H](Cc1ccccc1)C(=O)O; NMeI = CC[C@H](C)[C@H](NC)C(=O)O; NMeD = CN[C@@H](CC(=O)O)C(=O)O; NMeL = CN[C@@H](CC(C)C)C(=O)O; NMeV = CN[C@H](C(=O)O)C(C)C; NMeA = CN[C@@H](C)C(=O)O; Piperidide = C1CCN(*)CC1; Ac5c = NC1(C(=O)O)CCCC1; Aze = O=C(O)[C@@H]1CCN1; Sar = CNCC(=O)O
Measurement type: pIC50

CC[C@H](C)[C@@H]1NC(=O)[C@H](C)N(C)C(=O)C[C@@H](C(=O)n2cccc2)N(C)C(=O)[C@H](C(C)C)N(C)C(=O)[C@H](Cc2ccccc2)N(C)C(=O)[C@H](Cc2ccccc2)NC(=O)[C@H](Cc2cccc(Cl)c2)NC(=O)CN(C)C(=O)[C@H](Cc2ccc(Cl)cc2)N(C)C(=O)CN(C)C(=O)CN(C)C1=O (cyclo(F[NMeF][NMeV][X2][NMeA]I[Sar][Sar][NMePhe(4-Cl)][Sar][Phe(3-Cl)])) : 7.15
CC[C@H](C)[C@@H]1NC(=O)[C@H](C2CCCC2)N(C)C(=O)C[C@@H](C(=O)N2CCCCC2)N(C)C(=O)[C@H](C(C)C)N(C)C(=O)C2(CCCC2)NC(=O)[C@@H]2CCCN2C(=O)[C@H](CCc2ccc(C(F)(F)F)c(Cl)c2)NC(=O)CN(C)C(=O)[C@H](CC2CCCCC2)N(C)C(=O)CN(C)C(=O)CN(C)C1=O ([NMeGly(cPent)]I[Sar][Sar][NMeCha][Sar][hPhe(3-Cl-4-CF3)]P[Ac5c][NMeV][NMeD]-Piperidide; lactam N-11) : 8.37
CC[C@H](C)[C@@H]1NC(=O)[C@H](CC(C)C)N(C)C(=O)C[C@@H](C(=O)N2CCCCC2)N(C)C(=O)[C@H]([C@@H](C)CC)N(C)C(=O)C2(CCCC2)NC(=O)[C@@H]2CCCN2C(=O)[C@H](CCc2ccc(C(F)(F)F)c(Cl)c2)NC(=O)CN(C)C(=O)[C@H](CC2CCCCC2)N(C)C(=O)[C@@H]2CCN2C(=O)[C@H](C)N(C)C1=O ([NMeL]I[NMeA][Aze][NMeCha][Sar][hPhe(3-Cl-4-CF3)]P[Ac5c][NMeI][NMeD]-Piperidide; lactam N-11) : 8.55
CC[C@H](C)[C@@H]1NC(=O)[C@H](CC2CC2)N(C)C(=O)C[C@@H](C(=O)N2CCCCC2)N(C)C(=O)[C@H](C(C)C)N(C)C(=O)C2(CCCC2)NC(=O)[C@@H]2CCCN2C(=O)[C@H](CCc2ccc(C(F)(F)F)c(Cl)c2)NC(=O)CN(C)C(=O)[C@H](CC2CCCCC2)N(C)C(=O)CN(C)C(=O)CN(C)C1=O ([NMeAla(cPr)]I[Sar][Sar][NMeCha][Sar][hPhe(3-Cl-4-CF3)]P[Ac5c][NMeV][NMeD]-Piperidide; lactam N-11) : 8.00

---

- Test details: Inhibition of biotin-tagged KRAS G12D mutant (unknown origin) to recombinant His-tagged SOS1 (unknown origin) protein-protein interaction incubated for 120 mins by AlphaLISA method
- Parameters: species or system Homo sapiens
pIC50: −log10 of the molar value. Positions of bridges follow the written chain, without caps; N, C: chain ends. Non-standard residues stand in square brackets, D forms with d. Residues, ends and D or L forms follow the SMILES beside them. *: point of attachment. hPhe(3-Cl-4-CF3) = N[C@@H](CCc1ccc(C(F)(F)F)c(Cl)c1)C(=O)O; NMeCha = CN[C@@H](CC1CCCCC1)C(=O)O; NEtLeu = CCN[C@@H](CC(C)C)C(=O)O; NMeChg = CN[C@H](C(=O)O)C1CCCCC1; NMeD = CN[C@@H](CC(=O)O)C(=O)O; Piperidide = C1CCN(*)CC1; Ac5c = NC1(C(=O)O)CCCC1; Sar = CNCC(=O)O
Measurement type: pIC50

CC[C@H](C)[C@@H]1NC(=O)[C@H](CC(C)C)N(CC)C(=O)C[C@@H](C(=O)N2CCCCC2)N(C)C(=O)[C@H](C2CCCCC2)N(C)C(=O)C2(CCCC2)NC(=O)[C@@H]2CCCN2C(=O)[C@H](CCc2ccc(C(F)(F)F)c(Cl)c2)NC(=O)CN(C)C(=O)[C@H](CC2CCCCC2)N(C)C(=O)CN(C)C(=O)CN(C)C1=O ([NEtLeu]I[Sar][Sar][NMeCha][Sar][hPhe(3-Cl-4-CF3)]P[Ac5c][NMeChg][NMeD]-Piperidide; lactam N-11) : > 8.70

---

- Test details: Clearance in Wistar Hannover rat at 1 mg/kg, iv measured upto 24 hrs by LC-MS/MS analysis
- Type: ADME, organism-based
- Test conditions: in vivo
Positions of bridges follow the written chain, without caps; N, C: chain ends. Non-standard residues stand in square brackets, D forms with d. Residues, ends and D or L forms follow the SMILES beside them. *: point of attachment. hPhe(3-Cl-4-CF3) = N[C@@H](CCc1ccc(C(F)(F)F)c(Cl)c1)C(=O)O; NMeGly(cPent) = CN[C@H](C(=O)O)C1CCCC1; NMeCha = CN[C@@H](CC1CCCCC1)C(=O)O; NMeD = CN[C@@H](CC(=O)O)C(=O)O; NMeL = CN[C@@H](CC(C)C)C(=O)O; Morpholide = C1CN(*)CCO1; NMeA = CN[C@@H](C)C(=O)O; Ac5c = NC1(C(=O)O)CCCC1; Aze = O=C(O)[C@@H]1CCN1; Sar = CNCC(=O)O
Measurement type: clearance (mL/min/kg)

CC[C@H](C)[C@@H]1NC(=O)[C@H](CC(C)C)N(C)C(=O)C[C@@H](C(=O)N2CCOCC2)N(C)C(=O)[C@H](C2CCCC2)N(C)C(=O)C2(CCCC2)NC(=O)[C@@H]2CCCN2C(=O)[C@H](CCc2ccc(C(F)(F)F)c(Cl)c2)NC(=O)CN(C)C(=O)[C@H](CC2CCCCC2)N(C)C(=O)[C@@H]2CCN2C(=O)[C@H](C)N(C)C1=O ([NMeL]I[NMeA][Aze][NMeCha][Sar][hPhe(3-Cl-4-CF3)]P[Ac5c][NMeGly(cPent)][NMeD]-Morpholide; lactam N-11) : 7.81
